- Assayed system: Growth hormone secretagogue receptor type 1 (Homo sapiens, UniProt Q92847)
- Sequence (Q92847 whole entry): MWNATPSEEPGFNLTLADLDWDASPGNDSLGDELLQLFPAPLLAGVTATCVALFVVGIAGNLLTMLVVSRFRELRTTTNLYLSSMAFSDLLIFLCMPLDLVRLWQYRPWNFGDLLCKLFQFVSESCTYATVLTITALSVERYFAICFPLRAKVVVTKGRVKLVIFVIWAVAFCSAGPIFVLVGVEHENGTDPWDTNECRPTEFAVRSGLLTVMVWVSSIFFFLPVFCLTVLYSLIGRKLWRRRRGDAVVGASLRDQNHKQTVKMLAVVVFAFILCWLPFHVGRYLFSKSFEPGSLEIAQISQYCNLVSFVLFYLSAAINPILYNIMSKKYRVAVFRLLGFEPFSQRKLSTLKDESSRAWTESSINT
- Assay procedure: Agonist activity at human GHS-R1a expressed in HEK293T cells after 45 mins by HTRF-based IP3 turnover assay
- Type: functional, cell-based, HEK-293T
Endpoint: EC50 (nM)

Reference set, count: 3
Compound | Endpoint | Unit abbrev | Reading
COc1ccc(Cn2c([C@@H](Cc3c[nH]c4ccccc34)NC=O)nnc2[C@@H](Cc2c[nH]c3ccccc23)NC(=O)[C@@H](N)CCCCN)cc1 | EC50 | nM | 10
COc1ccc(Cn2c([C@@H](Cc3c[nH]c4ccccc34)NC(C)=O)nnc2[C@@H](Cc2c[nH]c3ccccc23)NC(=O)[C@@H](N)CCCCN)cc1 | EC50 | nM | 4
COc1ccc(Cn2c([C@@H](Cc3c[nH]c4ccccc34)NC(=O)[C@H](CC(C)C)NC(=O)[C@H](CC(C)C)NC(C)=O)nnc2[C@@H](Cc2c[nH]c3ccccc23)NC(=O)C(C)(C)O)cc1 | EC50 | nM | 74

[P] COC(=O)C(CC(C)C)C(=O)N[C@H](Cc1c[nH]c2ccccc12)c1nnc([C@@H](Cc2c[nH]c3ccccc23)NC(=O)[C@@H](N)CCCCN)n1Cc1ccc(OC)cc1 (mixture of isomers)
[Q] COc1ccc(Cn2c([C@H](Cc3c[nH]c4ccccc34)NC(=O)[C@H]3CNCCO3)nnc2[C@@H](Cc2c[nH]c3ccccc23)NC(=O)[C@@H](CC(C)C)NC(=O)[C@@H](CC(C)C)NC(C)=O)cc1 (stereo in doubt)
Problem: For P and Q , which recorded EC50 is lower? Please respond with the label that marks your chosen entry.
Result: P

[A] COc1ccc(Cn2c(C(Cc3c[nH]c4ccccc34)NC(=O)C3CCNCC3)nnc2[C@@H](Cc2c[nH]c3ccccc23)NC(=O)C(CC(C)C)NC(=O)C(CC(C)C)NC(C)=O)cc1 (single isomer, unassigned)
[B] COC(=O)[C@H](CC(C)C)NC(=O)C(CC(C)C)C(=O)N[C@H](Cc1c[nH]c2ccccc12)c1nnc([C@@H](Cc2c[nH]c3ccccc23)NC(=O)[C@@H](N)CCCCN)n1Cc1ccc(OC)cc1 (some centres undefined)
Problem: Larger number for EC50: A , or B ? Please respond with the label that marks your chosen entry.
Result: B
(B: 82 nM, A: 4.4 nM)

[A] COc1ccc(Cn2c([C@@H](Cc3c[nH]c4ccccc34)NC(=O)C(CC(C)C)C(=O)N[C@@H](CC(C)C)C(N)=O)nnc2[C@@H](Cc2c[nH]c3ccccc23)NC(=O)[C@@H](N)CCCCN)cc1 (mixture of isomers)
[B] COc1ccc(Cn2c([C@@H](Cc3c[nH]c4ccccc34)NC(=O)[C@H](CC(C)C)NC(=O)[C@H](CC(C)C)NC(C)=O)nnc2[C@@H](Cc2c[nH]c3ccccc23)NC(=O)C(C)(C)N)cc1
Problem: For A and B , which recorded EC50 is lower? Please respond with the label that marks your chosen entry.
Result: B
